Just for reference, patent US7067694B2 is where these values come from.

Listed compounds paired with reported IC50
# Test system: arteria saphena rings
# measurementNotes: Vasorelaxant effect in vitro (phenylephrine-contracted rabbit arteria saphena rings)
# Type: cell-based, Rabbits
# protocolConditions: Oryctolagus cuniculus, contraction by phenylephrine, 37° C., 0.1% DMSO, read-out: IC50, concentration necessary to reduce the height of the contraction control value by 50%

# compound, readingUnit, IC50
rows = [
    ("COc1ccc(-c2ccc(COc3ccc(Cl)cc3CCN(CCCCC(=O)O)Cc3ccc(C(=O)O)cc3)c(Cl)c2)cc1 [Example 9]", "nM", 8.3),
    ("O=C(O)CCCCN(CCc1cc(F)ccc1OCc1ccc(C2CCCCC2)cc1)Cc1ccc(C(=O)O)cc1 [Example 2]", "nM", 1.5),
    ("O=C(O)CCCCN(CCc1cc(Cl)ccc1OCc1ccc(-c2ccc(Cl)cc2)cc1)Cc1ccc(C(=O)O)cc1 [Example 6]", "nM", 8.1),
    ("O=C(O)CCCCN(CCc1cc(Cl)ccc1OCc1ccc(-c2ccc(C(F)(F)F)cc2)cc1)Cc1ccc(C(=O)O)cc1 [Example 3]", "nM", 1),
    ("O=C(O)CCCCN(CCc1ccc(F)cc1OCc1ccc(C2CCCCC2)cc1)Cc1ccc(C(=O)O)cc1 [Example 1]", "nM", 1.1),
]
